ASSAY_TEXT: activity coefficient (dimensionless); of the first substance listed, at infinite dilution; xn = mol fraction of the nth substance listed
EXPERIMENTAL_PARAMETERS: 313 K; Liquid; Chromatography; x1 = 0
Doc: threshold 6 (exclusive). Items with activity coefficient beneath it return YES; others return NO.

- COMPOUND: "Cc1ccc(C)o1 [2,5-dimethylfuran] + CCCC[n+]1ccn(C)c1.O=S(=O)([N-]S(=O)(=O)C(F)(F)F)C(F)(F)F"
  CLASS_NAME: "YES"
- COMPOUND: "c1ccoc1 [furan] + CCCCn1cc[n+](C)c1.[Cl-]"
  CLASS_NAME: "YES"
- COMPOUND: "Cc1ccco1 [2-methylfuran] + CCCC[n+]1ccn(C)c1.O=S(=O)([N-]S(=O)(=O)C(F)(F)F)C(F)(F)F"
  CLASS_NAME: "YES"
- COMPOUND: "CCc1ccccc1 [ethylbenzene] + CCCCn1cc[n+](C)c1.[Cl-]"
  CLASS_NAME: "NO"
- COMPOUND: "c1ccccc1 [benzene] + CCCC[n+]1ccn(C)c1.O=S(=O)([N-]S(=O)(=O)C(F)(F)F)C(F)(F)F"
  CLASS_NAME: "YES"

Confirm or reject: activity coefficient of Cc1ccccc1 [toluene] + CCCCn1cc[n+](C)c1.[Cl-] lies strictly below 6
NO

Just wondering, is activity coefficient of Cc1ccccc1 [toluene] + CCCC[n+]1ccn(C)c1.O=S(=O)([N-]S(=O)(=O)C(F)(F)F)C(F)(F)F below 6?
YES

Regarding c1ccccc1 [benzene] + CCCCn1cc[n+](C)c1.[Cl-] , kindly confirm whether its activity coefficient is beneath 6.
YES
